test: NCI Yeast Anticancer Drug Screen. Data for the rad50 strain (AID 155);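 further: 0% = growth of vehicle-only cultures of the same strain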; details: S. cerevisiae rad50 strain growth inhibition; at 50.0 µM; hits give high values
About 79,000 compounds went through this panel and 15% of them were active in at least one assay; those are over-represented in the sample as a whole.
Note that class boundaries on growth inhibition are bottom end (below 50%), midrange (50% to below 90%), top end (90% or more)

COMPOUND	LABEL_VALUE
Cc1noc(NS(=O)(=O)c2ccc(N=Nc3cc(N=Nc4ccc(S(=O)(=O)Nc5onc(C)c5C)cc4)c4c(NC(=O)C(Cl)Cl)cccc4c3O)cc2)c1C (tested in a mixture with another compound)	midrange
CC(=O)NNc1nc(C)c(C(=O)NNC(=O)C(=O)Nc2c(C)cccc2C(C)C)s1	bottom end
c1ccc(C2=NCCC(c3ccccc3)S2)cc1 (centres undefined)	bottom end
COc1ccc(C(=O)NCCN2CCN3Cc4[nH]c5ccccc5c4CC3C2)cc1 (centres undefined)	bottom end
CCCn1cc2c(SC)nc(SC)nc2n1	top end
NC(=S)N/N=C\C12CC3CC(CC(C3)C1)C2	top end

Task: Which of the defined bands does the recorded growth inhibition of Oc1ccc(COCCBr)c2cccnc12 sit within?
Output: top end

Task: Which of the defined bands does the recorded growth inhibition of CSc1nc2ccccc2s1 sit within?
Output: bottom end

Task: Which of the defined bands does the recorded growth inhibition of [Cu+2].[O-]/N=C/c1cccc(O)c1[O-].[O-]/N=C/c1cccc(O)c1[O-] sit within?
Output: top end

Task: Which of the defined bands does the recorded growth inhibition of C/C(O)=c1\cc(C#N)c(=C(C#N)C#N)nc1C sit within?
Output: bottom end

Task: Which of the defined bands does the recorded growth inhibition of C#CC(C)(C)OC(C)=O sit within?
Output: midrange

Task: Which of the defined bands does the recorded growth inhibition of Clc1cccc2c(-c3ccccc3)c3cccc(Cl)c3cc12 sit within?
Output: midrange

Task: Which of the defined bands does the recorded growth inhibition of C=CCOc1ccccc1C(=O)OC sit within?
Output: bottom end

Task: Which of the defined bands does the recorded growth inhibition of CC(=O)Oc1ccccc1N(C(C)=O)S(=O)(=O)c1ccc(C)cc1 sit within?
Output: top end

Task: Which of the defined bands does the recorded growth inhibition of CC(=O)OCC1OC(n2ncc3c(Sc4c([N+](=O)[O-])ncn4C)ncnc32)C(OC(C)=O)C1OC(C)=O (centres undefined) sit within?
Output: top end

Task: Which of the defined bands does the recorded growth inhibition of Cc1ccc(Cl)cc1NN sit within?
Output: top end

Task: Which of the defined bands does the recorded growth inhibition of CC(=O)Nc1ccc(/C=N\NC(=O)c2ccco2)cc1 sit within?
Output: bottom end

Task: Which of the defined bands does the recorded growth inhibition of O=[N+]([O-])/C(Br)=C\c1ccc([N+](=O)[O-])cc1 sit within?
Output: top end

Task: Which of the defined bands does the recorded growth inhibition of COC(=O)c1c(C)cccc1C1CN=NC12Cc1ccccc1C2=O (centres undefined) sit within?
Output: bottom end

Task: Which of the defined bands does the recorded growth inhibition of C/C=C(\C)C(=O)OC1C2C(C)=CC(=O)C(O)C2(C)C2C3(O)OCC24C1OC(=O)C(O)C4C(C)C3O (centres undefined) sit within?
Output: midrange

Task: Which of the defined bands does the recorded growth inhibition of Oc1ccc(-c2nnc(-c3ccccc3)nn2)cc1 sit within?
Output: midrange

Task: Which of the defined bands does the recorded growth inhibition of CC1=C(C#N)C(=O)OC1(C)C(CC(=O)c1ccccc1)c1ccccc1 (centres undefined) sit within?
Output: bottom end

Task: Which of the defined bands does the recorded growth inhibition of O=C1OC(c2ccccc2)(c2ccc(-c3ccc(O)cc3)cc2)c2ccccc21 (centres undefined) sit within?
Output: top end

Task: Which of the defined bands does the recorded growth inhibition of C=C1CC2(CCOc3ccccc32)OC1=O (centres undefined) sit within?
Output: midrange

Task: Which of the defined bands does the recorded growth inhibition of CN(C)CC/C(=N\Nc1ccc(Cl)cc1Cl)c1ccccc1 sit within?
Output: top end

---

Assay: NCI Yeast Anticancer Drug Screen. Data for the mlh1 rad18 strain (AID 175)
Settings: S. cerevisiae mlh1 rad18 strain growth inhibition; at 50.0 µM (retest, dose inferred, filed as 5.0); hits give high values
Experimental: Growth inhibition of yeast strains with defined genetic alterations is measured as a screen for potential anti-cancer activity. Selected strains with alterations in DNA damage repair or cell cycle control were exposed to compounds and growth inhibition was measured relative to vehicle treated controls. The strain used in this assay is mlh1 rad18
About 79,000 compounds went through this panel and 15% of them were active in at least one assay; those are over-represented in the sample as a whole.
PARAMETER: growth inhibition (%)
Give bare numbers, in %.

COMPOUND	OBSERVED
CCOC(=O)/C(=C\c1ccc([N+](=O)[O-])cc1)C(C)=O	99
CCCCC(CC)C(O)C(=O)O (stereo not drawn)	31
CCCCCCCCCCCCCCCCCC[n+]1cccc(C(=O)N2CCOCC2)c1	100
N#CC(O)C(Br)(Br)Br (stereo not drawn)	72
OC(CCN1CCOCC1)(c1cccc(Cl)c1)C1CCCCC1 (stereo not drawn)	58

I'm hoping you can list growth inhibition for every compound here, please.
1. O=S(=O)(c1cc(Br)ccc1O)c1cc(Br)ccc1O
2. COc1ccc2c(C(=O)c3ccccc3)c3[n+](cc2c1OC)CCc1cc2c(cc1-3)OCO2
3. COc1ccc(OC(=O)c2ccccc2)c2c1C(=O)C=CC2=O
4. Oc1cccc(/C=C/c2ccncc2)c1
5. CCc1c(C)[nH]c(-c2csc(N)n2)c1C
6. CN1CCC(/C=C/c2cccc3ccccc23)CN1 (stereo not drawn) (tested in a mixture with another compound)
7. O=[N+]([O-])c1ccc(O)c(C2CCCCC2)c1

Output:
1: 99; 2: 24; 3: 24; 4: 12; 5: 93; 6: 95; 7: 99

I'm hoping you can list growth inhibition for every compound here, please.
1. O=C1C(C(O)(C(F)(F)Cl)C(F)(F)Cl)CCCC1C(O)(C(F)(F)Cl)C(F)(F)Cl (stereo not drawn)
2. CC1([N+](=O)[O-])C(=O)C2(N3CCOCC3)CCCC2C1c1ccccc1 (stereo not drawn)

Output:
1. 99
2. 96

I'm hoping you can list growth inhibition for every compound here, please.
1. COC1OC(CBr)C(OC(C)=O)C(OC(C)=O)C1OC(C)=O (stereo not drawn)
2. C=CCc1cc([N+](=O)[O-])ccc1O
3. CCOc1ccc2c(c1)n([O-])c1ccccc1[n+]2=O
4. C/C(=N/O)C1CC(CCC2([N+](=O)[O-])CCC(C)(O)C(/C(C)=N/O)C2)([N+](=O)[O-])CCC1(C)O (stereo not drawn)
5. NC(=S)N1N=C2c3ccccc3CCC[C@H]2[C@@H]1c1ccccc1
6. O=C(CSSCC(=O)Nc1ccccc1)Nc1ccccc1
7. Cc1cccc2c1C1c3c(C)cccc3C(O)CC1CC2O (stereo not drawn)

Output:
1: 2; 2: 93; 3: 98; 4: 0; 5: 48; 6: 19; 7: 28

I'm hoping you can list growth inhibition for every compound here, please.
1. O=C(Nc1ccc2c(c1)Cc1cc([N+](=O)[O-])c(F)cc1-2)C(F)(F)F
2. O=C1/C(=C/c2ccc([N+](=O)[O-])cc2)Sc2scc(-c3cccc([N+](=O)[O-])c3)[n+]21

Output:
[3, 99]

---

experiment: NCI Yeast Anticancer Drug Screen. Data for the mlh1 rad18 strain (AID 175); details: S. cerevisiae mlh1 rad18 strain growth inhibition; at 50.0 µM (retest, dose inferred, filed as 5.0); hits give high values
Compounds without any hit were thinned out: in the full panel of roughly 79,000, 15% have a hit.
Label scheme for growth inhibition: lower than 70% is Not satisfied, 70% and above is Satisfied.

The examples below pair each entry with its known result.
MOLECULE	LABEL_VALUE
CCOc1ccc(N=Nc2c(C)nn(C(=S)SC)c2OCC)cc1	Satisfied
CCOC(=O)c1sc2[n+](c1C)C(=O)/C(=C/c1ccc([N+](=O)[O-])cc1)S2	Satisfied
Nc1nc(N)c(N=O)c(Nc2cccc(Br)c2)n1	Satisfied
Brc1ccc(N=NN2CCCC2)cc1	Not satisfied
CC(C)CC(CC(C)C)NCC(C)OC(=O)C(c1ccccc1)c1ccccc1 (centres undefined)	Satisfied

Task: Please tell me: is the molecule CCOP(=O)(OCC)/C(C#N)=C/c1ccc(Oc2ccccc2)cc1 at or over 70% in terms of growth inhibition?
Output: Satisfied

Task: Please tell me: is the molecule CN(C)C(=S)S(=O)(=O)CCCCS(=O)(=O)C(=S)N(C)C at or over 70% in terms of growth inhibition?
Output: Not satisfied

Task: Please tell me: is the molecule CCCCCCCCCCCC(O)CN1CCOCC1 (centres undefined) at or over 70% in terms of growth inhibition?
Output: Not satisfied

Task: Please tell me: is the molecule O=C1/C(=C\c2ccccc2)CN(C(=O)CCN2CCCCC2)C/C1=C/c1ccccc1 at or over 70% in terms of growth inhibition?
Output: Satisfied

Task: Please tell me: is the molecule O=C(NCCCCCN1CCC2(CCCCC2)CC1)C(c1ccccc1)C1CCCCC1 (centres undefined) at or over 70% in terms of growth inhibition?
Output: Satisfied

Task: Please tell me: is the molecule COC(=O)c1nc(N)nc(C(=O)OC)c1C(=O)c1ccccc1 at or over 70% in terms of growth inhibition?
Output: Not satisfied

Task: Please tell me: is the molecule COc1ccc(OCC(O)CN2CCN(c3cccc(Cl)c3)CC2)cc1 (centres undefined) at or over 70% in terms of growth inhibition?
Output: Not satisfied

Task: Please tell me: is the molecule C=CCCCCCCCCC(=O)CCCCCCCCC=C at or over 70% in terms of growth inhibition?
Output: Not satisfied

Task: Please tell me: is the molecule COc1ccc([N+](=O)[O-])cc1NC(=O)Nc1ccc(C(=O)OCC(C)C)cc1 at or over 70% in terms of growth inhibition?
Output: Not satisfied

Task: Please tell me: is the molecule COc1cc(/C=C/C(=O)Sc2ccccc2)cc(OC)c1O at or over 70% in terms of growth inhibition?
Output: Not satisfied

Task: Please tell me: is the molecule CCCCCCCCC/C=C1\CCC(CN(C)C)C1=O (centres undefined) at or over 70% in terms of growth inhibition?
Output: Satisfied

Task: Please tell me: is the molecule CN(/N=C/C(O)C(O)C(O)CO)c1ccccc1 (centres undefined) at or over 70% in terms of growth inhibition?
Output: Satisfied

Task: Please tell me: is the molecule CN(C)c1ccccc1CCCCCCc1ccccc1N(C)C at or over 70% in terms of growth inhibition?
Output: Not satisfied

Task: Please tell me: is the molecule CCCCCCCCN(CCCCCCCC)C(=O)C(C)O (centres undefined) at or over 70% in terms of growth inhibition?
Output: Satisfied

Task: Please tell me: is the molecule COC(=O)/C=C/c1c2ccccc2cc2ccccc12 at or over 70% in terms of growth inhibition?
Output: Not satisfied
